Reported ED50 Larynx Hep. 2 values follow for various compounds
tested on: human larynx (HeP.2); experiment: MTT cytotoxicity assay, human larynx (HeP.2); format: cell-based; conditions: 72 hours
observable: ED50 Larynx Hep. 2 (µg/mL)

>>> experimentalvalue("C=C(C)C1CCC2(C(=O)O)CCC3(C)C(CCC4C5(C)CCC(OC(=O)c6ccccc6C(F)(F)F)C(C)(C)C5CCC43C)C12 (centres unmarked)")
10.0
>>> experimentalvalue("CC(C)C1CCC2(C(=O)OC3CCC4(C)C(CCC5(C)C4CCC4C6C(C(C)C)CCC6(C(=O)O)CCC45C)C3(C)C)CCC3(C)C(CCC4C5(C)CC(Br)C(=O)C(C)(C)C5CCC43C)C12 (centres unmarked)")
1.4
>>> experimentalvalue("CC(C)C1CCC2(C(=O)O)CCC3(C)C(CCC4C5(C)CCC(OC(=O)c6ccc(F)cc6F)C(C)(C)C5CCC43C)C12 (centres unmarked)")
5.9
>>> experimentalvalue("CC(C)C1CCC2(C(=O)O)CCC3(C)C(CCC4C5(C)CCC(OC(=O)c6ccccc6C(F)(F)F)C(C)(C)C5CCC43C)C12 (centres unmarked)")
2.0

---

Reported ED50 Lung L 132 values are given for each entry in this list.
system: human lung (L132); assay: MTT cytotoxicity assay, human lung (L132); format: cell-based; conditions: 72 hours
observable: ED50 Lung L 132

>>> experimentalvalue("C=C(C)[C@@H]1CC[C@]2(C(=O)O)CC[C@]3(C)[C@H](CC[C@@H]4[C@@]5(C)CC[C@H](O)C(C)(C)[C@@H]5CC[C@]43C)[C@@H]12")
"3.2 mg/L"
>>> experimentalvalue("COc1ccc(NNC2CCC3(C)C(CCC4(C)C3CCC3C5C(C(C)C)CCC5(C(=O)O)CCC34C)C2(C)C)cc1 (stereo not drawn)")
">4 mg/L"
>>> experimentalvalue("C=C(C)C1CCC2(C(=O)O)CCC3(C)C(CCC4C5(C)CCC(OC(=O)c6cccc(C(F)(F)F)c6)C(C)(C)C5CCC43C)C12 (stereo not drawn)")
"2.7 mg/L"
>>> experimentalvalue("C=C(C)C1CCC2(C(=O)O)CCC3(C)C(CCC4C5(C)CCC(OC(=O)c6ccc(CCCCC)cc6)C(C)(C)C5CCC43C)C12 (stereo not drawn)")
"5.9 mg/L"
>>> experimentalvalue("CC(C)C1CCC2(C(=O)O)CCC3(C)C(CCC4C5(C)CCC(OC(=O)c6ccc(F)cc6F)C(C)(C)C5CCC43C)C12 (stereo not drawn)")
"1.1 mg/L"
>>> experimentalvalue("CC(C)C1CCC2(C(=O)O)CCC3(C)C(CCC4C5(C)CCC(OS(C)(=O)=O)C(C)(C)C5CCC43C)C12 (stereo not drawn)")
"6.5 mg/L"
>>> experimentalvalue("CC(C)C1CCC2(C(=O)O)CCC3(C)C(CCC4C5(C)CCC(OC(=O)c6ccccc6C(F)(F)F)C(C)(C)C5CCC43C)C12 (stereo not drawn)")
"4.0 mg/L"
>>> experimentalvalue("CC(C)C1CCC2(C(=O)O)CCC3(C)C(CCC4C5(C)CCC(OC(=O)c6cccc(C(F)(F)F)c6)C(C)(C)C5CCC43C)C12 (stereo not drawn)")
"2.6 mg/L"
>>> experimentalvalue("C=C(C)C1CCC2(C(=O)O)CCC3(C)C(CCC4C5(C)CCC(OS(C)(=O)=O)C(C)(C)C5CCC43C)C12 (stereo not drawn)")
"5 mg/L"
>>> experimentalvalue("C=C(C)C1CCC2(C(=O)O)CCC3(C)C(CCC4C5(C)CCC(OC(=O)C67CCC(C(C)C)C6C6CCC8C9(C)CC(Br)C(=O)C(C)(C)C9CCC8(C)C6(C)CC7)C(C)(C)C5CCC43C)C12 (stereo not drawn)")
">10 mg/L"
>>> experimentalvalue("C=C(C)C1CCC2(C(=O)OCC(=O)OC)CCC3(C)C(CCC4C5(C)CCC(NCCO)C(C)(C)C5CCC43C)C12 (stereo not drawn)")
"7.0 mg/L"
>>> experimentalvalue("CC(C)C1CCC2(C(=O)O)CCC3(C)C(CCC4C5(C)CCC(N=Cc6ccc(F)c(F)c6)C(C)(C)C5CCC43C)C12 (stereo not drawn)")
"2.5 mg/L"
